measurement-description: chemical genetic growth profiling, strain panel (AID 1159580);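 further: tested at 20 µM; growth read once vehicle control cultures reached saturation at 30 °C; 1 = growth at the plate median or of vehicle wells; lower values mean less growth of the strain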
test-parameters: S. cerevisiae deletion strains, growth OD, locus YMR058W, strain fet3
About 2,000 (36%) of roughly 5,500 compounds were called active. About 18% were inconclusive and are not listed. No stated cut-off is given here; in the data, active means normalized growth mostly below about 0.91 (no sharp cut-off); inconclusive means no clear call, values can overlap the other calls; inactive means mostly above about 0.92. Some of the results follow.
Outcome codes: 1.0 (active), 0.0 (inactive)

CC1(C)C=Cc2cc3ccc(=O)oc3cc2O1: 0.0
CC1(C)S[C@@H]2[C@H](NC(=O)[C@H](C(=O)O)c3cccs3)C(=O)N2[C@H]1C(=O)O: 0.0
OCCN1CCN(CCCN2c3ccccc3Sc3ccc(C(F)(F)F)cc32)CC1: 1.0
CC1=C(O)C(=O)C=C2C1=CC=C1[C@@]2(C)CC[C@@]2(C)[C@@H]3C[C@](C)(C(=O)O)CC[C@]3(C)CC[C@]12C: 1.0
CN1CCN(CCCN2c3ccccc3Sc3ccc(C(F)(F)F)cc32)CC1: 1.0
CCCCCCCCCCCCCCCCCCOCC(O)CO (configuration not stated): 0.0
Cc1onc(-c2ccccc2Cl)c1C(=O)N[C@@H]1C(=O)N2[C@@H]1SC(C)(C)[C@@H]2C(=O)O: 0.0
COc1cc2c(cc1OC)[C@@]13CCN4CC5=CCOC6CC(=O)N2C1[C@H]6[C@H]5C[C@H]43 (some centres not stated): 0.0
CC(=O)[O][Hg][c]1ccccc1: 1.0
COc1cc2c(cc1OC)[C@@H]1C(=O)c3ccc4c(c3O[C@@H]1CO2)CC(C(C)C)O4 (some centres not stated): 0.0
COC(=O)[C@]1(C)CC[C@]2(C)CC[C@]3(C)C4=CC=C5C(=CC(=O)C(O)=C5C)[C@]4(C)CC[C@@]3(C)[C@@H]2C1: 1.0
COc1cc(NS(=O)(=O)c2ccc(N)cc2)ncn1: 0.0
Cc1onc(-c2ccccc2)c1C(=O)NC1C(=O)N2[C@@H]1SC(C)(C)[C@@H]2C(=O)O (some centres not stated): 0.0
COc1ccc(C2C(=O)c3ccccc3C2=O)cc1: 0.0
CC(=O)Oc1cc2c(c(C)c1OC(C)=O)CC1OC13C2(C)CCC1(C)C2CC(C)(C(=O)O)CCC2(C)CCC13C (configuration not stated): 0.0
CC1(C)S[C@@H]2[C@H](NC(=O)Cc3ccccc3)C(=O)N2[C@H]1C(=O)O: 0.0
NCCNCCNCCN: 0.0
